test: Pharmacokinetic measurements of H3B-6527 capsules in patients (trial NCT02834780), plasma LC-MS/MS; format: in vivo, human; conditions: human, plasma, oral, 500 mg, 500 mg BID, fed, Day 1; Table 5, nominal times; read-out: Half-life, geometric mean (CV%) (converted)
observable: half-life (h)
Dear colleague, please return just the value in h, with no unit written.

Look up half-life: C=CC(=O)Nc1cc(N2CCN(CC)CC2)ccc1Nc1cc(N(C)C(=O)Nc2c(Cl)c(OC)cc(OC)c2Cl)ncn1 [H3B-6527]
2.1

###

Test: Pharmacokinetic measurements of H3B-6527 capsules in patients (trial NCT02834780), plasma LC-MS/MS
Assay type: in vivo, human
Details: human, plasma, oral, 2000 mg, 2000 mg QD, fed, Day 8; Table 6, actual times after QC; read-out: Cmax, geometric mean (CV%)
Procedure: A description of the first in human clinical trial for H3B-6527 can be found at the ClinicalTrials.gov by searching for trial identifier NCT02834780. […] Blood samples are collected at the planned time points from each patient and centrifuged. […] The concentration data are then analyzed using Phoenix® WinNonlin software to obtain PK parameters. […]
observable: Cmax (ng/mL)
Dear colleague, please return just the value in ng/mL, with no unit written.

Look up Cmax: C=CC(=O)Nc1cc(N2CCN(CC)CC2)ccc1Nc1cc(N(C)C(=O)Nc2c(Cl)c(OC)cc(OC)c2Cl)ncn1
502

###

test: Pharmacokinetic measurements of H3B-6527 capsules in patients (trial NCT02834780), plasma LC-MS/MS; type: in vivo, human; conditions: human, plasma, oral, 600 mg, 600 mg QD, fasted, Day 8; Table 6, actual times after QC; read-out: Cmax, geometric mean (CV%)
observable: Cmax (ng/mL)
Dear colleague, please return just the value in ng/mL, with no unit written.

Look up Cmax: C=CC(=O)Nc1cc(N2CCN(CC)CC2)ccc1Nc1cc(N(C)C(=O)Nc2c(Cl)c(OC)cc(OC)c2Cl)ncn1 [H3B-6527]
194

###

Assay: Pharmacokinetic measurements of H3B-6527 capsules in patients (trial NCT02834780), plasma LC-MS/MS
Format: in vivo, human
Conditions: human, plasma, oral, 1400 mg, 1400 mg QD, fasted, Day 8; Table 6, actual times after QC; read-out: AUC, geometric mean (CV%)
Protocol: A description of the first in human clinical trial for H3B-6527 can be found at the ClinicalTrials.gov by searching for trial identifier NCT02834780. […] Blood samples are collected at the planned time points from each patient and centrifuged. […] The concentration data are then analyzed using Phoenix® WinNonlin software to obtain PK parameters. […]
observable: AUC (ng·h/mL)
Dear colleague, please return just the value in ng·h/mL, with no unit written.

Look up AUC: C=CC(=O)Nc1cc(N2CCN(CC)CC2)ccc1Nc1cc(N(C)C(=O)Nc2c(Cl)c(OC)cc(OC)c2Cl)ncn1
1260

###

experiment: Pharmacokinetic measurements of H3B-6527 capsules in patients (trial NCT02834780), plasma LC-MS/MS; assay type: in vivo, human; conditions: human, plasma, oral, 600 mg, 600 mg QD, fasted, Day 8; Table 5, nominal times; read-out: Cmax, geometric mean (CV%)
observable: Cmax (ng/mL)
Dear colleague, please return just the value in ng/mL, with no unit written.

Look up Cmax: C=CC(=O)Nc1cc(N2CCN(CC)CC2)ccc1Nc1cc(N(C)C(=O)Nc2c(Cl)c(OC)cc(OC)c2Cl)ncn1
194

###

test: Pharmacokinetic measurements of H3B-6527 capsules in patients (trial NCT02834780), plasma LC-MS/MS; assay type: in vivo, human; conditions: human, plasma, oral, 600 mg, 600 mg QD, fasted, Day 1; Table 5, nominal times; read-out: Half-life, geometric mean (CV%) (converted)
observable: half-life (h)
Dear colleague, please return just the value in h, with no unit written.

Look up half-life: C=CC(=O)Nc1cc(N2CCN(CC)CC2)ccc1Nc1cc(N(C)C(=O)Nc2c(Cl)c(OC)cc(OC)c2Cl)ncn1
2.4

###

assay: Pharmacokinetic measurements of H3B-6527 capsules in patients (trial NCT02834780), plasma LC-MS/MS; format: in vivo, human; conditions: 1400 mg QD, fed, Day 1; Table 5, nominal times
observable: AUC, geometric mean (CV%) (ng·h/mL)
Dear colleague, please return just the value in ng·h/mL, with no unit written.

Look up AUC, geometric mean (CV%): C=CC(=O)Nc1cc(N2CCN(CC)CC2)ccc1Nc1cc(N(C)C(=O)Nc2c(Cl)c(OC)cc(OC)c2Cl)ncn1 [H3B-6527]
5670

###

experiment: Pharmacokinetic measurements of H3B-6527 capsules in patients (trial NCT02834780), plasma LC-MS/MS; format: in vivo, human; details: 1000 mg QD, fed, Day 8; Table 5, nominal times
observable: AUC, geometric mean (CV%) (ng·h/mL)
Dear colleague, please return just the value in ng·h/mL, with no unit written.

Look up AUC, geometric mean (CV%): C=CC(=O)Nc1cc(N2CCN(CC)CC2)ccc1Nc1cc(N(C)C(=O)Nc2c(Cl)c(OC)cc(OC)c2Cl)ncn1 [H3B-6527]
865

###

assay: Pharmacokinetic measurements of H3B-6527 capsules in patients (trial NCT02834780), plasma LC-MS/MS; format: in vivo, human; conditions: 1000 mg QD, fasted, Day 1; Table 5, nominal times
observable: AUC, geometric mean (CV%) (ng·h/mL)
Dear colleague, please return just the value in ng·h/mL, with no unit written.

Look up AUC, geometric mean (CV%): C=CC(=O)Nc1cc(N2CCN(CC)CC2)ccc1Nc1cc(N(C)C(=O)Nc2c(Cl)c(OC)cc(OC)c2Cl)ncn1
602

###

experiment: Pharmacokinetic measurements of H3B-6527 capsules in patients (trial NCT02834780), plasma LC-MS/MS; type: in vivo, human; conditions: human, plasma, oral, 1400 mg, 1400 mg QD, fasted, Day 1; Table 6, actual times after QC; read-out: AUC, geometric mean (CV%)
observable: AUC (ng·h/mL)
Dear colleague, please return just the value in ng·h/mL, with no unit written.

Look up AUC: C=CC(=O)Nc1cc(N2CCN(CC)CC2)ccc1Nc1cc(N(C)C(=O)Nc2c(Cl)c(OC)cc(OC)c2Cl)ncn1
400

###

assay: Pharmacokinetic measurements of H3B-6527 capsules in patients (trial NCT02834780), plasma LC-MS/MS; type: in vivo, human; conditions: human, plasma, oral, 600 mg, 600 mg QD, fed, Day 1; Table 5, nominal times; read-out: Tmax, median (min-max)
observable: Tmax (h)
Dear colleague, please return just the value in h, with no unit written.

Look up Tmax: C=CC(=O)Nc1cc(N2CCN(CC)CC2)ccc1Nc1cc(N(C)C(=O)Nc2c(Cl)c(OC)cc(OC)c2Cl)ncn1
4

###

experiment: Pharmacokinetic measurements of H3B-6527 capsules in patients (trial NCT02834780), plasma LC-MS/MS; type: in vivo, human; details: human, plasma, oral, 1000 mg, 1000 mg QD, fasted, Day 1; Table 6, actual times after QC; read-out: Cmax, geometric mean (CV%)
observable: Cmax

Look up Cmax: C=CC(=O)Nc1cc(N2CCN(CC)CC2)ccc1Nc1cc(N(C)C(=O)Nc2c(Cl)c(OC)cc(OC)c2Cl)ncn1
225 ng/mL

###

experiment: Pharmacokinetic measurements of H3B-6527 capsules in patients (trial NCT02834780), plasma LC-MS/MS; format: in vivo, human; conditions: 1400 mg QD, fasted, Day 1; Table 5, nominal times
observable: AUC, geometric mean (CV%)
The reply should consist of the numeric value with the unit placed after it.

Look up AUC, geometric mean (CV%): C=CC(=O)Nc1cc(N2CCN(CC)CC2)ccc1Nc1cc(N(C)C(=O)Nc2c(Cl)c(OC)cc(OC)c2Cl)ncn1
400 ng·h/mL

###

assay: Pharmacokinetic measurements of H3B-6527 capsules in patients (trial NCT02834780), plasma LC-MS/MS; assay type: in vivo, human; settings: human, plasma, oral, 500 mg, 500 mg BID, fasted, Day 1; Table 5, nominal times; read-out: Cmax, geometric mean (CV%)
observable: Cmax (µg/mL)
Dear colleague, please return just the value in µg/mL, with no unit written.

Look up Cmax: C=CC(=O)Nc1cc(N2CCN(CC)CC2)ccc1Nc1cc(N(C)C(=O)Nc2c(Cl)c(OC)cc(OC)c2Cl)ncn1 [H3B-6527]
0.124

###

assay: Pharmacokinetic measurements of H3B-6527 capsules in patients (trial NCT02834780), plasma LC-MS/MS; assay type: in vivo, human; conditions: human, plasma, oral, 1000 mg, 1000 mg QD, fed, Day 8; Table 6, actual times after QC; read-out: Cmax, geometric mean (CV%)
observable: Cmax
The reply should consist of the numeric value with the unit placed after it.

Look up Cmax: C=CC(=O)Nc1cc(N2CCN(CC)CC2)ccc1Nc1cc(N(C)C(=O)Nc2c(Cl)c(OC)cc(OC)c2Cl)ncn1
177 ng/mL
